Exercise: state measured normalized growth for each of the compounds provided.
Measurement notes: chemical genetic growth profiling, strain panel (AID 1159580);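 note: tested at 20 µM; growth read once vehicle control cultures reached saturation at 30 °C; 1 = growth at the plate median or of vehicle wells; lower values mean less growth of the strain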
Test context: S. cerevisiae deletion strains, growth OD, locus YGR229C, strain SMI1, active compounds read low
Among all 5,500 compounds or so, about 2,000 (36%) were called active. Not shown: some 18% with an inconclusive outcome. Some of the results follow.
Response field accepts a number only; no unit should be typed.

In: Tell us which normalized growth value is on record for C1CNCCN1
Out: 1.02

In: Tell us which normalized growth value is on record for O=C(O[C@@H]1Cc2c(O)cc(O)cc2O[C@@H]1c1cc(O)c(O)c(O)c1-c1c([C@H]2Oc3cc(O)cc(O)c3C[C@H]2O)cc(O)c(O)c1O)c1cc(O)c(O)c(O)c1
Out: 0.0837

In: Tell us which normalized growth value is on record for C1CCN2CC3CC(CN4CCCCC34)C2C1 (centres undefined)
Out: 1.01

In: Tell us which normalized growth value is on record for O=C(NNC(=S)Nc1ccc(F)cc1)c1ccccc1Cl
Out: 0.97

In: Tell us which normalized growth value is on record for NC1C=CC=C(C(=O)O)C1 (centres undefined)
Out: 0.999

In: Tell us which normalized growth value is on record for Clc1cc(Cl)c(Cl)c(-n2cccc2)c1Cl
Out: 0.752

In: Tell us which normalized growth value is on record for O=C(Nc1ccc(C(F)(F)F)cc1)Nc1ccccc1C(=O)O
Out: 0.975

In: Tell us which normalized growth value is on record for Cc1cccc(C(=O)NCN2CCN(c3ccccc3C#N)CC2)c1
Out: 0.942

In: Tell us which normalized growth value is on record for CCOP(=S)(OCC)SCn1c(=O)oc2cc(Cl)ccc21
Out: 1.01

In: Tell us which normalized growth value is on record for CCCCC(CC)CN1CN(CC(CC)CCCC)CC(C)(N)C1 (centres undefined)
Out: 0.0664

In: Tell us which normalized growth value is on record for O=C1CCCC2C3CC(CN12)[C@@H]1CCCCN1C3 (some centres undefined)
Out: 1.02

In: Tell us which normalized growth value is on record for COc1cc2c(c(OC)c1OC)-c1ccc(O)c(=O)cc1[C@@H](NC(C)=O)CC2
Out: 0.247

In: Tell us which normalized growth value is on record for CN(C)CCOC(C)(c1ccccc1)c1ccccn1 (centres undefined)
Out: 0.995

In: Tell us which normalized growth value is on record for Cc1ccc2cc3c(ccc4ccccc43)c3c2c1CC3
Out: 0.841

====

Measurement notes: chemical genetic growth profiling, strain panel (AID 1159580);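 note: tested at 20 µM; growth read once vehicle control cultures reached saturation at 30 °C; 1 = growth at the plate median or of vehicle wells; lower values mean less growth of the strain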
Test context: S. cerevisiae deletion strains, growth OD, locus YMR125W, strain sto1, active compounds read low
About 2,000 (36%) of roughly 5,500 compounds were called active. Roughly 18% stayed inconclusive and do not appear here. The list shows a part of the results.
Endpoint name: normalized growth
Response field accepts a number only; no unit should be typed.

In: Tell us which normalized growth value is on record for CCCC1O[C@@H]2CC3C4CCC5=CC(=O)C=CC5(C)C4[C@@H](O)CC3(C)[C@]2(C(=O)CO)O1 (stereo partly specified)
Out: 1

In: Tell us which normalized growth value is on record for COC(=O)C[C@H]1C(C)(C)C(=O)[C@@H]2CC3=C4CC(=O)O[C@@H](c5ccoc5)[C@]4(C)CCC3[C@@]1(C)C2=O (stereo partly specified)
Out: 0.982

In: Tell us which normalized growth value is on record for CO[C@H]1/C=C/O[C@@]2(C)Oc3c(C)c(O)c4c(O)c(c(/C=N/N5CCN(C)CC5)c(O)c4c3C2=O)NC(=O)/C(C)=C\C=C\C(C)[C@H](O)[C@@H](C)[C@@H](O)[C@@H](C)[C@@H](OC(C)=O)[C@@H]1C (stereo partly specified)
Out: 1.04

In: Tell us which normalized growth value is on record for COc1cccc(/C=C/C(=O)O)c1C(C)C
Out: 0.988

In: Tell us which normalized growth value is on record for CC(=O)/C(=C\c1ccccc1)CC(=O)O
Out: 0.955

In: Tell us which normalized growth value is on record for N[C@@H](Cc1ccc(O)c(O)c1)C(=O)O
Out: 0.976

In: Tell us which normalized growth value is on record for C1CNCCN1
Out: 1.03

In: Tell us which normalized growth value is on record for CC1(C)C(=O)C=C[C@@]2(C)C1=C(O)C(=O)[C@]1(C)C2CC[C@@]2(C)[C@H](c3ccoc3)C[C@H]3O[C@]321 (stereo partly specified)
Out: 0.876

In: Tell us which normalized growth value is on record for CC(=O)NCCCS(=O)(=O)O
Out: 1.03

In: Tell us which normalized growth value is on record for CO[C@H]1/C=C/O[C@@]2(C)Oc3c(C)c(O)c4c(O)c(c5c(nc6cc(C)ccn65)c4c3C2=O)NC(=O)/C(C)=C\C=C\[C@H](C)[C@H](O)[C@@H](C)C(O)[C@@H](C)[C@H](OC(C)=O)[C@@H]1C (stereo partly specified)
Out: 1.05

In: Tell us which normalized growth value is on record for O=C(NC(=O)c1c(F)cccc1F)Nc1ccc(Cl)cc1
Out: 1.01

====

Exercise: state measured normalized growth for each of the compounds provided.
Measurement notes: chemical genetic growth profiling, strain panel (AID 1159580);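 note: tested at 20 µM; growth read once vehicle control cultures reached saturation at 30 °C; 1 = growth at the plate median or of vehicle wells; lower values mean less growth of the strain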
Test context: S. cerevisiae deletion strains, growth OD, locus YCL061C, strain MRC1 (second series), active compounds read low
The campaign covered roughly 5,500 compounds. About 2,000 (36%) were called active. About 18% were inconclusive and are not listed. This is one part of the list.
Response field accepts a number only; no unit should be typed.

In: Tell us which normalized growth value is on record for CN1[C@@H](CC(=O)c2ccccc2)CCC[C@H]1C[C@H](O)c1ccccc1
Out: 1.01

In: Tell us which normalized growth value is on record for CCN1CCc2nc(N)oc2CC1
Out: 1

In: Tell us which normalized growth value is on record for O=C(O)/C=C/c1cnc[nH]1
Out: 1.01

In: Tell us which normalized growth value is on record for NCCNC(=O)c1ccc(Cl)cc1
Out: 0.997

In: Tell us which normalized growth value is on record for COc1ccc2c(c1)[C@@]13CCCC[C@H]1[C@@H](C2)NCC3
Out: 0.997

In: Tell us which normalized growth value is on record for COc1[nH]c2ccc(F)cc2c1C(=O)OCC1CCN(CCNS(C)(=O)=O)CC1
Out: 0.994

In: Tell us which normalized growth value is on record for CCN(CC)CCNC(=O)c1cc(S(C)(=O)=O)ccc1OC
Out: 0.991

In: Tell us which normalized growth value is on record for CN(C(=O)CCCOc1ccc2[nH]c(=O)ccc2c1)C1CCCCC1
Out: 0.998

In: Tell us which normalized growth value is on record for Cc1cccc(C(=O)NCN2CCN(c3ccccc3C#N)CC2)c1
Out: 0.978

In: Tell us which normalized growth value is on record for CCCCCCCCCCCCCCCC(=O)NCCO
Out: 1.01

In: Tell us which normalized growth value is on record for CC(C)(C)c1ccc(C(O)CCCN2CCC(C(O)(c3ccccc3)c3ccccc3)CC2)cc1 (stereo not given)
Out: 1

In: Tell us which normalized growth value is on record for CN/C(=C\[N+](=O)[O-])NCCSCc1ccc(CN(C)C)o1
Out: 1.01

In: Tell us which normalized growth value is on record for Nc1nc(Cl)nc2c1ncn2[C@@H]1O[C@H](COP(=O)(O)OP(=O)(O)OP(=O)(O)O)[C@H](O)C1O (stereo not given in full)
Out: 1

In: Tell us which normalized growth value is on record for N[C@@H](CCC(=O)N[C@H](CSN=O)C(=O)NCC(=O)O)C(=O)O
Out: 1.01

In: Tell us which normalized growth value is on record for Nc1ncnc2c1ncn2[C@@H]1O[C@H](COP(=O)(O)CP(=O)(O)OP(=O)(O)O)[C@H](O)C1O (stereo not given in full)
Out: 0.999

In: Tell us which normalized growth value is on record for CC1(C)CCC2=C(O1)c1ccccc1C(=O)C2=O
Out: 0.876

In: Tell us which normalized growth value is on record for CC(C)(C)NCC(O)c1ccccc1Cl (stereo not given)
Out: 1.01

In: Tell us which normalized growth value is on record for Nc1ncnc2c1ncn2[C@@H]1O[C@H](CO)[C@H](O)C1O (stereo not given in full)
Out: 0.998

In: Tell us which normalized growth value is on record for OCC1NCC(O)C(O)C1O (stereo not given)
Out: 1.01

In: Tell us which normalized growth value is on record for COc1cc(CNC(=O)CCCCCCC(C)C)ccc1O
Out: 0.993

====

Measurement notes: chemical genetic growth profiling, strain panel (AID 1159580);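 note: tested at 20 µM; growth read once vehicle control cultures reached saturation at 30 °C; 1 = growth at the plate median or of vehicle wells; lower values mean less growth of the strain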
Test context: S. cerevisiae deletion strains, growth OD, locus YNL233W, strain BNI4, active compounds read low
In all, about 5,500 compounds went through this assay and about 2,000 (36%) were called active. About 18% were inconclusive and are not listed. The list shows a part of the results.
Exercise: state measured normalized growth for each of the compounds provided.
Response field accepts a number only; no unit should be typed.

In: Tell us which normalized growth value is on record for CCN(CC)CCNC(=O)c1cc(S(C)(=O)=O)ccc1OC
Out: 1

In: Tell us which normalized growth value is on record for CO[C@H]1/C=C/O[C@@]2(C)Oc3c(C)c(O)c4c(O)c(c(/C=N/N5CCN(C)CC5)c(O)c4c3C2=O)NC(=O)/C(C)=C\C=C\C(C)[C@H](O)[C@@H](C)[C@@H](O)[C@@H](C)[C@@H](OC(C)=O)[C@@H]1C (stereo not given in full)
Out: 1.02

In: Tell us which normalized growth value is on record for CC(=O)Nc1ccc(S(=O)(=O)Nc2ccc([N+](=O)[O-])cc2)cc1
Out: 1

In: Tell us which normalized growth value is on record for Oc1c(Br)cc(Br)c2cccnc12
Out: 0.0553

In: Tell us which normalized growth value is on record for CCCC(C)C1(CC)C(=O)N=C(S)NC1=O (stereo not given)
Out: 0.999
